conditions: in n-propanol, 323.15 K
endpoint: solubility (mole fraction)
I'd appreciate a reply containing only the number, no unit.

Q) # solubility (mole fraction) lookup, item `C[C@@H]1O[C@@H](OC[C@H]2O[C@@H](Oc3c(-c4ccc(OCCO)c(OCCO)c4)oc4cc(OCCO)cc(O)c4c3=O)[C@H](O)[C@@H](O)[C@@H]2O)[C@H](O)[C@H](O)[C@H]1O`
A) 0.000562

###

conditions: in 1,4-dioxane, 313.15 K
endpoint: solubility (mole fraction)
API doc: respond with a numeric literal and nothing else, no unit.

Q) // lookup solubility (mole fraction) for `C[C@@H]1O[C@@H](OC[C@H]2O[C@@H](Oc3c(-c4ccc(OCCO)c(OCCO)c4)oc4cc(OCCO)cc(O)c4c3=O)[C@H](O)[C@@H](O)[C@@H]2O)[C@H](O)[C@H](O)[C@H]1O`
A) 0.00121

###

conditions: in n-butanol, 298.15 K
endpoint: solubility (mole fraction)
// no unit, no text: just the number

Q) GET /values?readout=solubility (mole fraction)&item= `C[C@@H]1O[C@@H](OC[C@H]2O[C@@H](Oc3c(-c4ccc(OCCO)c(OCCO)c4)oc4cc(OCCO)cc(O)c4c3=O)[C@H](O)[C@@H](O)[C@@H]2O)[C@H](O)[C@H](O)[C@H]1O`
A) 0.000142

###

conditions: in isopropanol, 308.15 K
endpoint: solubility (mole fraction)
Respond with the number and no other words.

Q) Data request, read-out solubility (mole fraction), for `C[C@@H]1O[C@@H](OC[C@H]2O[C@@H](Oc3c(-c4ccc(OCCO)c(OCCO)c4)oc4cc(OCCO)cc(O)c4c3=O)[C@H](O)[C@@H](O)[C@@H]2O)[C@H](O)[C@H](O)[C@H]1O`
A) 0.000268

Origin of values: BigSolDB 2.1
